Data provenance is patent US7964732B2.

Listing of recorded IC50 by entry.
Target: human VR1 (Homo sapiens)
Sequence (Q8NER1 whole entry): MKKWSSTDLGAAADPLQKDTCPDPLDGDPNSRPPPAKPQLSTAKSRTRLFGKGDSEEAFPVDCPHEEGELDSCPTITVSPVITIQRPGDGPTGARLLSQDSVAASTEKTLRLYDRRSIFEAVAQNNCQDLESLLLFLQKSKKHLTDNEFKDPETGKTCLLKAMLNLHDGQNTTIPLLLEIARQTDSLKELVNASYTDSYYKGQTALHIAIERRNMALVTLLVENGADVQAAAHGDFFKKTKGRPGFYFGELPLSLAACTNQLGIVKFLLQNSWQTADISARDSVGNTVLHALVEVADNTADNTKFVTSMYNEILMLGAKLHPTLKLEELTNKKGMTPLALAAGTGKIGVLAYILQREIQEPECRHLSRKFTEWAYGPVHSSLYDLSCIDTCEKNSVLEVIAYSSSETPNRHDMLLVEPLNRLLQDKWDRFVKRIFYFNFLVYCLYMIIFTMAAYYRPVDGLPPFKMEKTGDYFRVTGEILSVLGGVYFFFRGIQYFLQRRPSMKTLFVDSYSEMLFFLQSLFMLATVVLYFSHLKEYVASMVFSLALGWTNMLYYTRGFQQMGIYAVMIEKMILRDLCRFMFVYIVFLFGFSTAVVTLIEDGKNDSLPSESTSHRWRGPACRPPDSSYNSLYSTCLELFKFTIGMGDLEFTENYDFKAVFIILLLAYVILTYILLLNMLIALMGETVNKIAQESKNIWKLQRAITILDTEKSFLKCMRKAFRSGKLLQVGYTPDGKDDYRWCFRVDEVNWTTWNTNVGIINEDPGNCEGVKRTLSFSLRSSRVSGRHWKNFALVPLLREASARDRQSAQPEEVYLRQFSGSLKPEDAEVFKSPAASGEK
Assay: Human VR1 antagonist assay (Ca2+ imaging assay using human VR1 highly expressing cells)
Conditions: intracellular Ca2+ imaging (fura-2)
From the text: VR1 antagonistic activity can be determined by the Ca^2+ imaging assay using human VR1 highly expressing cells. The cells that highly express human VR1 receptors are obtainable from several different conventional methods. […] The capsaicin-induced changes in the intracellular calcium concentration were monitored using FDSS 6000 (Hamamatsu Photonics, Japan), a fluorometric imaging system. […]
MEASURED_QUANTITY: IC50 (nM)

INSERT INTO assay_data (compound, system_under_test, units_text, data_value) VALUES
  ('Cc1c([C@@H](C)NC(=O)c2ccc3nc(C4(C)CC4)ccc3c2)cnn1C [Example 13]', 'human VR1 (Homo sapiens)', 'nM', 313),
  ('Cc1c(C(C)NC(=O)c2ccc3nc(C(C)(C)C(F)(F)F)ccc3c2)cnn1CC(F)(F)F (stereo not drawn) [Example 5]', 'human VR1 (Homo sapiens)', 'nM', 44.1),
  ('Cc1c([C@@H](C)NC(=O)c2ccc3cc([C@](C)(O)C(F)(F)F)ccc3c2)cnn1C [Example 32a]', 'human VR1 (Homo sapiens)', 'nM', 3190),
  ('Cc1c(C(C)NC(=O)c2ccc3nc(C(C)(C)C(F)(F)F)ccc3c2)cnn1CC(C)(C)O (stereo not drawn) [Example 12]', 'human VR1 (Homo sapiens)', 'nM', 79.9),
  ('Cc1c(CNC(=O)c2ccc3cc(C(C)(C)C)ccc3n2)cnn1C [Example 34]', 'human VR1 (Homo sapiens)', 'nM', 254),
  ('Cc1c(C(C)NC(=O)c2ccc3cc(C(C)(C)C)ccc3c2)cnn1C (stereo not drawn) [Example 24]', 'human VR1 (Homo sapiens)', 'nM', 23),
  ('Cc1c(C(C)NC(=O)c2ccc3cc(C(C)(C)O)ccc3c2)cnn1C (stereo not drawn) [Example 37]', 'human VR1 (Homo sapiens)', 'nM', 1000),
  ('Cc1c(C(C)NC(=O)c2ccc3nc(C(C)(C)C(F)(F)F)ccc3c2)cnn1C1CCC1 (stereo not drawn) [Example 17]', 'human VR1 (Homo sapiens)', 'nM', 124),
  ('CCn1ncc(CNC(=O)c2ccc3nc(C(C)(C)C(F)(F)F)ccc3c2)c1C [Example 15]', 'human VR1 (Homo sapiens)', 'nM', 71.7),
  ('Cc1c([C@@H](C)NC(=O)c2ccc3nc(C(C)(C)C(F)(F)F)ccc3c2)cnn1CC(F)(F)F [Example 6]', 'human VR1 (Homo sapiens)', 'nM', 26.6),
  ('Cc1c(CNC(=O)c2ccc3cc(C(C)(C)C)ccc3c2)cnn1C [Example 27]', 'human VR1 (Homo sapiens)', 'nM', 73),
  ('CCC(NC(=O)c1ccc2nc(C(C)(C)C(F)(F)F)ccc2c1)c1cnn(C)c1C (racemic) [Example 7]', 'human VR1 (Homo sapiens)', 'nM', 145),
  ('Cc1c(C(C)NC(=O)c2ccc3cc(C(F)(F)F)ccc3c2)cnn1C (stereo not drawn) [Example 29]', 'human VR1 (Homo sapiens)', 'nM', 189),
  ('Cc1c(C(C)NC(=O)c2ccc3nc(C(C)(C)C(F)(F)F)ccc3c2)cnn1CCO (stereo not drawn) [Example 11]', 'human VR1 (Homo sapiens)', 'nM', 16.4),
  ('C[C@H](NC(=O)c1ccc2nc(C(C)(C)C(F)(F)F)ccc2c1)c1cnn(C)c1Cl [Example 18]', 'human VR1 (Homo sapiens)', 'nM', 18),
  ('CCn1ncc(C(C)NC(=O)c2ccc3nc(C(C)(C)C(F)(F)F)ccc3c2)c1C (stereo not drawn) [Example 16]', 'human VR1 (Homo sapiens)', 'nM', 28.9),
  ('Cc1[nH]ncc1C(C)NC(=O)c1ccc2nc(C(C)(C)C(F)(F)F)ccc2c1 (stereo not drawn) [Example 9]', 'human VR1 (Homo sapiens)', 'nM', 323),
  ('Cc1c([C@@H](C)NC(=O)c2ccc3nc(C(F)(F)F)ccc3c2)cnn1C [Example 23]', 'human VR1 (Homo sapiens)', 'nM', 121),
  ('C[C@@H](NC(=O)c1ccc2nc(C(C)(C)C(F)(F)F)ccc2c1)c1cnn(C)c1CO [Example 4]', 'human VR1 (Homo sapiens)', 'nM', 607),
  ('Cc1n[nH]c(C)c1CNC(=O)c1ccc2cc(C(C)(C)C)ccc2c1 [Example 25]', 'human VR1 (Homo sapiens)', 'nM', 118),
  ('C[C@@H](NC(=O)c1ccc2nc(C(C)(C)C(F)(F)F)ccc2c1)c1cnn(C)c1Cl [Example 18a]', 'human VR1 (Homo sapiens)', 'nM', 3),
  ('Cc1nn(C)cc1CNC(=O)c1ccc2cc(C(C)(C)C)ccc2c1 [Example 26]', 'human VR1 (Homo sapiens)', 'nM', 443),
  ('Cc1c([C@@H](C)NC(=O)c2ccc3cc([C@@](C)(O)C(F)(F)F)ccc3c2)cnn1C (single isomer, unassigned) [Example 32]', 'human VR1 (Homo sapiens)', 'nM', 52.7),
  ('Cc1c(CNC(=O)c2ccc3nc(C(C)(C)C(F)(F)F)ccc3c2)cnn1C [Example 2]', 'human VR1 (Homo sapiens)', 'nM', 261),
  ('COC(C)(c1ccc2cc(C(=O)NC(C)c3cnn(C)c3C)ccc2c1)C(F)(F)F (stereo not drawn) [Example 33]', 'human VR1 (Homo sapiens)', 'nM', 139),
  ('Cc1nn(C)c(C)c1CNC(=O)c1ccc2cc(C(C)(C)C)ccc2c1 [Example 35]', 'human VR1 (Homo sapiens)', 'nM', 1870);
